- Protocol notes: Microsomal stability, mouse
Label fulfilled when Microsomal Stability: % remaining after 60 minutes is strictly below 40%; otherwise label not fulfilled.

Qu. Regarding O=C(NC(c1ccccc1)c1ccc(Cl)cc1)C1CCN(CCOc2ccccc2)CC1 (centres unmarked) [Compound 39] , kindly confirm whether its Microsomal Stability: % remaining after 60 minutes is beneath 40%.
Ans. not fulfilled

Qu. Regarding O=C(NC(c1ccc(Cl)cc1)c1ccccn1)C1CCN(CCOc2ccccc2C(F)(F)F)CC1 (centres unmarked) [Compound 6] , kindly confirm whether its Microsomal Stability: % remaining after 60 minutes is beneath 40%.
Ans. fulfilled

Qu. Regarding COc1cccc(C(NC(=O)C2CCN(CCOc3ccccc3)CC2)c2ccccc2)c1 (centres unmarked) [Compound 146] , kindly confirm whether its Microsomal Stability: % remaining after 60 minutes is beneath 40%.
Ans. fulfilled

***
Qu. Regarding O=C(NC(c1ccc(F)cc1)c1ccc(Cl)cc1)C1CCN(CCOc2ccccc2)CC1 (centres unmarked) [Compound 42] , kindly confirm whether its Microsomal Stability: % remaining after 60 minutes is beneath 40%.
Ans. not fulfilled

Qu. Regarding O=C(NC(c1ccc(F)cc1)c1ccccn1)C1CCN(CCOc2ccccc2C(F)(F)F)CC1 (centres unmarked) [Compound 52] , kindly confirm whether its Microsomal Stability: % remaining after 60 minutes is beneath 40%.
Ans. fulfilled

---

- Tgt: human D2R/β-arrestin (Homo sapiens (Human), UniProt P14416)
- Sequence (P14416 whole entry): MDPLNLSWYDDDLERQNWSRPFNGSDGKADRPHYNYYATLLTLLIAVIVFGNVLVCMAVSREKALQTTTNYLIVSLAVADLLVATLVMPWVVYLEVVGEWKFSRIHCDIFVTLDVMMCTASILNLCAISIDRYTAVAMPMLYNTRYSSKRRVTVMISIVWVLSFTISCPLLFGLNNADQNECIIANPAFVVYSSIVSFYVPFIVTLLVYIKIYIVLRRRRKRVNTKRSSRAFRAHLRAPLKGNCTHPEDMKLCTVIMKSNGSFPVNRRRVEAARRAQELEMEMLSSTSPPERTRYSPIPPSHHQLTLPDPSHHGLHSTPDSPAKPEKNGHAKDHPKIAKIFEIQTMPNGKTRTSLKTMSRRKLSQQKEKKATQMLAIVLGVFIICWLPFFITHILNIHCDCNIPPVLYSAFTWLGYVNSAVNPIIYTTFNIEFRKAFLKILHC
- Protocol notes: Gi/cAMP agonist assay (Lance Ultra cAMP, Forskolin)
- Type: cell-based
- Measurement setup: CHO-K1 cell line expressing human D2R/β-arrestin
Endpoint: EC50

Qu. Which EC50 is reported for this compound? O=C(NC(c1ccc(Cl)cc1)c1ccccn1)C1CCN(CCOc2ccc3ncsc3c2)CC1 (stereo not drawn)
Ans. 100 to 1000 nM

Qu. Which EC50 is reported for this compound? COc1ccc(C(NC(=O)C2CCN(CCOc3ccccc3)CC2)c2ccccn2)cc1 (stereo not drawn)
Ans. 100 to 1000 nM

Qu. Which EC50 is reported for this compound? O=C(NC(c1ccc(Cl)cc1)c1ccncc1F)C1CCN(CCOc2ccccc2F)CC1 (single isomer, unassigned) [Compound 91a]
Ans. 100 to 1000 nM

Qu. Which EC50 is reported for this compound? O=C(NC(c1ccc(F)cc1)c1ccccn1)C1CCN(CCOc2ccccc2C(F)(F)F)CC1 (single isomer, unassigned) [Compound 52b]
Ans. > 30000 nM

Qu. Which EC50 is reported for this compound? COc1cccc(C(NC(=O)C2CCN(CCOc3ccccc3)CC2)c2ccccn2)c1 (stereo not drawn) [Compound 35a]
Ans. 10000 to 30000 nM

Qu. Which EC50 is reported for this compound? Fc1ccccc1C(NCC1CCN(CCOc2ccccc2)CC1)c1ccc(Cl)cc1 (single isomer, unassigned) [Compound 81b]
Ans. > 30000 nM

Qu. Which EC50 is reported for this compound? COc1cccc(C(NC(=O)C2CCN(CCOc3ccccc3F)CC2)c2ccccn2)c1 (single isomer, unassigned) [Compound 22b]
Ans. > 30000 nM

Qu. Which EC50 is reported for this compound? COc1ccccc1OCCN1CCC(C(=O)NC(c2ccc(Cl)cc2)c2ccccn2)CC1 (stereo not drawn)
Ans. > 30000 nM

Provide each entry's EC50 from the list below.
1. O=C(NC(c1ccccc1)c1ccccn1)C1CCN(CCOc2ccccc2)CC1 (stereo not drawn)
2. O=C(NC(c1ccc(Cl)cc1)c1ccccc1F)C1CCN(CCOc2cc(F)ccc2F)CC1 (stereo not drawn)

Ans.
["< 100 nM", "< 100 nM"]

Provide each entry's EC50 from the list below.
1. CN1CCC(C(=O)NC(c2ccc(Cl)cc2)c2ccccn2)CC1 (stereo not drawn)
2. O=C(NC(c1ccccc1)c1ccc(Cl)cc1)C1CCN(CCOc2ccccc2)CC1 (stereo not drawn)
3. O=C(NC(c1ccc(F)cc1)c1ccccn1)C1CCN(CCOc2ccccc2Cl)CC1 (single isomer, unassigned) [Compound 53b]
4. Fc1ccc(C(NCC2CCN(CCOc3ccccc3)CC2)c2ccccn2)cc1 (single isomer, unassigned) [Compound 78a]
5. COc1cccc(C(c2ccccn2)N(CC2CCN(CCOc3ccccc3F)CC2)C(C)C)c1 (stereo not drawn)

Ans.
1: > 30000 nM; 2: > 30000 nM; 3: > 30000 nM; 4: 100 to 1000 nM; 5: < 100 nM

---

Kindly supply the reported EC50 values for the records listed here.
- Tgt: human D2R/β-arrestin (Homo sapiens (Human), UniProt P14416)
- Protocol notes: Gi/cAMP agonist assay (Lance Ultra cAMP, Forskolin)
- Format: cell-based
- Measurement setup: CHO-K1 cell line expressing human D2R/β-arrestin

Answered examples (4):
Qu. Which EC50 is reported with human D2R/β-arrestin (Homo sapiens (Human), UniProt P14416) for this entry: O=C(NC(c1ccc2c(c1)OC(F)(F)O2)c1ccccn1)C1CCN(CCOc2ccccc2F)CC1 (stereo not drawn) [Compound 94] ?
Ans. < 0.1 µM

Qu. Which EC50 is reported with human D2R/β-arrestin (Homo sapiens (Human), UniProt P14416) for this entry: COc1ccccc1C(NC(=O)C1CCN(CCOc2ccccc2)CC1)c1ccc(Cl)cc1 (stereo not drawn) ?
Ans. 1 to 10 µM

Qu. Which EC50 is reported with human D2R/β-arrestin (Homo sapiens (Human), UniProt P14416) for this entry: O=C(NC(c1ccc(Cl)cc1)c1ccccn1)C1CCN(CCOc2ccncc2)CC1 (stereo not drawn) ?
Ans. > 30 µM

Qu. Which EC50 is reported with human D2R/β-arrestin (Homo sapiens (Human), UniProt P14416) for this entry: Fc1ccc(F)c(OCCN2CCC(CNC(c3ccc(Cl)cc3)c3ccccn3)CC2)c1 (single isomer, unassigned) [Compound 89b] ?
Ans. 0.1 to 1 µM

Provide each entry's EC50 from the list below.
1. CC1(C(=O)NC(c2ccc(Cl)cc2)c2ccccn2)CCN(CCOc2ccccc2)CC1 (single isomer, unassigned) [Compound 144a]
2. Fc1ccc(C(NCC2CCN(CCOc3ccccc3F)CC2)c2ccccn2)cc1 (stereo not drawn)
3. O=C(NC(c1ccc(F)cc1)c1ccccc1F)C1CCN(CCOc2ccccc2Cl)CC1 (stereo not drawn)
4. CC1(C(=O)NC(c2ccc(F)cc2)c2ccccn2)CCN(CCOc2ccccc2C(F)(F)F)CC1 (single isomer, unassigned) [Compound 70b]
5. Fc1ccccc1OCCN1CCC(CN(CC(F)(F)F)C(c2ccc(Cl)cc2)c2ccccn2)CC1 (single isomer, unassigned) [Compound 136a]
6. O=C(NC(c1ccc(F)cc1)c1ccccn1)C1CCN(CCOc2ccccc2)CC1 (stereo not drawn)
7. O=C(NC(c1ccc(F)cc1)c1ccccn1)C1CCN(Cc2nc3ccccc3o2)CC1 (stereo not drawn)

Ans.
["< 0.1 µM", "1 to 10 µM", "> 30 µM", "< 0.1 µM", "1 to 10 µM", "10 to 30 µM", "> 30 µM"]

Provide each entry's EC50 from the list below.
1. Clc1ccc(C(OCC2CCN(CCOc3ccccc3)CC2)c2ccccn2)cc1 (stereo not drawn)
2. O=C(NC(c1ccc(F)cc1)c1ccccn1)C1CCN(CCOc2c(F)cccc2F)CC1 (stereo not drawn)
3. O=C(NC(c1ccc(Cl)cc1)c1ccccn1)C1CCN(CCOc2ccc(C(F)(F)F)cc2)CC1 (stereo not drawn)

Ans.
1. 0.1 to 1 µM
2. > 30 µM
3. 10 to 30 µM

Qu. Which EC50 is reported with human D2R/β-arrestin (Homo sapiens (Human), UniProt P14416) for this entry: O=C(NC(c1ccc(Cl)cc1)c1ccccn1)C1CCN(CCOc2ccc3ccc(=O)[nH]c3c2)CC1 (stereo not drawn) ?
Ans. > 30 µM

---

- Test system: plasma protein
- Protocol notes: Plasma protein binding, mouse
- Assay type: in vitro ADME
- Measurement setup: plasma, read-out: Plasma Protein Binding % bound
Endpoint: fraction unbound
Answers are plain numbers.

Qu. Which fraction unbound is reported for this molecule? O=C(NC(c1ccc(Cl)cc1)c1ccccn1)C1CCN(CCOc2ccccc2F)CC1 (stereo not shown)
Ans. 0.015

Qu. Which fraction unbound is reported for this molecule? COc1cccc(C(NC(=O)C2CCN(CCOc3ccccc3)CC2)c2ccccn2)c1 (stereo not shown)
Ans. 0.074

Qu. Which fraction unbound is reported for this molecule? O=C(NC(c1ccc(F)cc1)c1ccccn1)C1CCN(CCOc2ccccc2Cl)CC1 (stereo not shown)
Ans. 0.021

Now, please, on to the next molecule.
Qu. Which fraction unbound is reported for this molecule? O=C(NC(c1ccc(Cl)cc1)c1ccccn1)C1CCN(CCn2ccc(=O)cc2)CC1 (stereo not shown)
Ans. 0.391

---

Kindly supply the reported Plasma Stability: % remaining after 5 hours values for the records listed here.
- Protocol notes: Plasma stability, human
- Assay type: in vitro ADME
Answers are plain numbers, in %.

Answered examples (5):
Qu. Which Plasma Stability: % remaining after 5 hours is reported for this molecule? COc1cccc(C(NC(=O)C2CCN(CCOc3ccccc3)CC2)c2ccccc2)c1 (stereo not shown)
Ans. 98

Qu. Which Plasma Stability: % remaining after 5 hours is reported for this molecule? O=C(NC(c1cccc(F)c1)c1ccccn1)C1CCN(CCOc2ccccc2)CC1 (stereo not shown)
Ans. 100

Qu. Which Plasma Stability: % remaining after 5 hours is reported for this molecule? O=C(NC(c1ccc(Cl)cc1)c1ccccn1)C1CCN(CCOc2ccc3cccnc3c2)CC1 (stereo not shown)
Ans. 98

Qu. Which Plasma Stability: % remaining after 5 hours is reported for this molecule? O=C(NC(c1ccc(F)cc1)c1ccccn1)C1CCN(CCOc2ccccc2C(F)(F)F)CC1 (stereo not shown)
Ans. 84

Qu. Which Plasma Stability: % remaining after 5 hours is reported for this molecule? O=C(NC(c1ccc(Cl)cc1)c1ccccn1)C1CCN(CCOc2ccccc2F)CC1 (stereo not shown)
Ans. 92

Provide each entry's Plasma Stability: % remaining after 5 hours from the list below.
1. O=C(NC(c1ccc(Cl)cc1)c1ccccn1)C1CCN(CCCc2ccccc2)CC1 (stereo not shown)
2. O=C(NC(c1ccc(Cl)cc1)c1cccc(F)c1)C1CCN(CCOc2ccccc2)CC1 (stereo not shown)
3. O=C(NC(c1ccc(F)cc1)c1ccccn1)C1CCN(CCOc2ccccc2F)CC1 (stereo not shown)
4. O=C(NC(c1ccc(Cl)cc1)c1ccccn1)C1CCN(CCOc2ccccc2Cl)CC1 (stereo not shown)
5. O=C(NC(c1ccc(Cl)cc1)c1ccccn1)C1CCN(CCOc2ccc3ccc(=O)[nH]c3c2)CC1 (stereo not shown)
6. O=C(NC(c1ccc(Cl)cc1)c1ccccn1)C1CCN(CCOc2ccc(F)cc2F)CC1 (stereo not shown)
7. O=C(NC(c1cccc(C(F)(F)F)c1)c1ccccn1)C1CCN(CCOc2ccccc2)CC1 (stereo not shown)

Ans.
[94.9, 100, 96, 99.7, 96, 91.2, 91]

Qu. Which Plasma Stability: % remaining after 5 hours is reported for this molecule? O=C(NC(c1ccc(Cl)cc1)c1ccccn1)C1CCN(CCOc2ccccc2C(F)(F)F)CC1 (stereo not shown)
Ans. 99
